Assay: ABTS free radical scavenging assay
Conditions: Table 3; isolated compounds; means ± SD (n = 3); NA is not active; listed as Quercetin (7); read-out: Antioxidants ABTS IC50
MEASURED_METRIC: pIC50
One number for each entry, as −log10 of the molar value.

Entry O=c1c(O)c(-c2ccc(O)c(O)c2)oc2cc(O)cc(O)c12 — recorded pIC50 = 6.48

###

Assay: ABTS free radical scavenging assay
Conditions: Table 3; isolated compounds; means ± SD (n = 3); NA is not active; read-out: Antioxidants ABTS IC50
// classify: if (IC50 < 10 µM) 1 else -1

[
  {
    "COMPOUND": "O=c1c(O)c(-c2ccc(O)cc2)oc2cc(O)cc(O)c12 [Compound 8, kaempferol]",
    "CATEGORY_LABEL": -1
  },
  {
    "COMPOUND": "O=C(O)/C=C/c1ccc(O)c(O)c1 [Compound 5, caffeic acid]",
    "CATEGORY_LABEL": 1
  },
  {
    "COMPOUND": "Cc1c(C)c2c(c(C)c1O)CCC(C)(C(=O)O)O2 (centres unmarked) [Trolox, reference compound]",
    "CATEGORY_LABEL": -1
  }
]

Query: Does the reported IC50 of O=C(O)c1ccc(O)c(O)c1 [Compound 1, protocatechuic acid] stay below 10 µM?
Result: 1

Query: Does the reported IC50 of O=C(O)[C@H]1O[C@@H](Oc2c(-c3ccc(O)cc3)oc3cc(O)cc(O)c3c2=O)[C@H](O)[C@@H](O)[C@@H]1O [Compound 6, kaempferol 3-O-glucuronide] stay below 10 µM?
Result: -1

Source: paper PMC5751115
